Tested on: 217524-143-R1-J4-PDC spheroids with HUVEC/MSC, viability;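 further: spheroids exposed to agents for seven days before reading; 100% = DMSO vehicle control viability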
assay_info: Anticancer human tumor 217524-143-R1-J4-PDC patient-derived pancreatic carcinoma cell line growth inhibition [CLK]
test_parameters: second compound 3.16 µM; first compound 0.1 µM; active compounds read low
measured_property: viability, T/C (%)
Unit % implied. Number only.

Known results for compounds:
1. O=c1[nH]cc(F)c(=O)[nH]1 + CN1CCN(c2cc(C(=O)Nc3cc4cc(-c5cnn(C)c5)ccc4cn3)ccn2)CC1 = 0.91
2. C#Cc1c(F)ccc2cc(O)cc(-c3ncc4c(N5CC6CCC(C5)N6)nc(OCC56CCCN5CC(F)C6)nc4c3F)c12 (stereo not given) + CNC(=O)c1ccc(Nc2nc(OC3CCCC3)c3c(-c4ccc5nc(C)oc5c4)c[nH]c3n2)c(OC)c1 = 29.5
3. CC1COCCN1c1cc(C2(S(C)(=N)=O)CC2)nc(-c2ccnc3[nH]ccc23)n1 (stereo not given) + CN1CCN(c2cc(C(=O)Nc3cc4cc(-c5cnn(C)c5)ccc4cn3)ccn2)CC1 = 0.42

With those in mind, consider the next compound.
Prompt: Retrieve viability, T/C measured for CC1COCCN1c1cc(C2(S(C)(=N)=O)CC2)nc(-c2ccnc3[nH]ccc23)n1 (stereo not given) + CNC(=O)c1ccc(Nc2nc(OC3CCCC3)c3c(-c4ccc5nc(C)oc5c4)c[nH]c3n2)c(OC)c1 and print it.
Completion: 26
